In what follows, each item is paired with its Kd for NADH dehydrogenase [ubiquinone] 1 alpha subcomplex subunit 13 (Homo sapiens).
Active and inactive are the calls of the source.
Reported property: Kd

INSERT INTO results (compound, val) VALUES
  ('CC(=O)Nc1cccc(-n2c(=O)n(C3CC3)c(=O)c3c(Nc4ccc(I)cc4F)n(C)c(=O)c(C)c32)c1', '> 30 µM (inactive)'),
  ('N[C@@H]1CCCN(c2c(/C=C3\SC(=O)NC3=O)cccc2-c2ccccc2)C1', '> 30 µM (inactive)'),
  ('COC(=O)N[C@@H](C)CNc1nccc(-c2cn(C(C)C)nc2-c2cc(Cl)cc(NS(C)(=O)=O)c2F)n1', '> 30 µM (inactive)'),
  ('CC(C)Nc1cc(-c2c[nH]c(C(=O)N[C@H](CO)c3cccc(Cl)c3)c2)c(Cl)cn1', '> 30 µM (inactive)'),
  ('Nc1nc(N)c2nc(-c3cccc(O)c3)c(-c3cccc(O)c3)nc2n1', '> 30 µM (inactive)'),
  ('Cc1cc(Nc2cc(N3CCN(C)CC3)nc(/C=C/c3ccccc3)n2)n[nH]1', '> 30 µM (inactive)'),
  ('Cc1ccc(-n2nc(C(C)(C)C)cc2NC(=O)NCc2cc(F)ccc2Oc2ccc3c(cnn3CCO)c2)cc1', '> 30 µM (inactive)'),
  ('CN1N=C(N)c2cn([C@@H]3O[C@H](COP(=O)(O)O)[C@@H](O)[C@H]3O)c3ncnc1c23 [TRICIRIBINE PHOSPHATE]', '> 30 µM (inactive)');

Every entry's value here was drawn from ChEMBL document CHEMBL3991601.
